System: transplanted mice (hair follicles of haired mice transplanted into the back of nude mice)
TEST_NAME: Hair shaft growth in nude mice transplanted with hair follicles of haired mice (Example 1)
Type: in vivo
APPLIED_CONDITIONS: 1 wt % in 50% ethanol, topical 4 times per day; third hair cycle (reproducibility)
MEASUREMENT_TYPE: Hair shaft growth rate
Quote the value and follow it with the unit of measurement.

Answered cases to consult:
[[record]]
compound = "O[C@H]1[C@H](O)[C@@H](O)[C@H](O)[C@@H](O)[C@H]1O [myo-inositol, cis-1,2,3,5-trans-4,6-cyclohexanehexaol]"
measured_result = "0.44 ± 0.08 mm/day"

[[record]]
compound = "OC1C(O)C(O)C(O)C(O)C1O (stereo not drawn) [epi-inositol, cis-1,2,3,4,5-trans-6-cyclohexanehexaol]"
measured_result = "0.45 ± 0.09 mm/day"

[[record]]
compound = "OC1C(O)C(O)C(O)C(O)C1O (stereo not drawn) [allo-inositol, cis-1,2,3,4-trans-5,6-cyclohexaneheaxol]"
measured_result = "0.40 ± 0.04 mm/day"


Q) Notebook: pull reported Hair shaft growth rate for transplanted mice (hair follicles of haired mice transplanted into the back of nude mice), entry OC1C(O)C(O)C(O)C(O)C1O [D-chiro-inositol]
A) 0.48 ± 0.04 mm/day
